Biological target: Sphingosine kinase 1 (Homo sapiens)
Assay: Inhibition of His-tagged full length human recombinant SPHK1 expressed in baculovirus infected fall armyworm Sf9 cell expression system using sphingosine as substrate by ADP-quest assay
MEASURED ATTRIBUTE: Ki (µM)
Output spec: scalar in µM, unitless text.

*Q* What does the data say about its Ki? Entry: O=C(NCc1ccc(O)c(O)c1)C12CC3CC(C1)CC(c1ccc(Cl)cc1)(C3)C2
*A* 3.2

###

Target: Sphingosine kinase 2 (Homo sapiens)
Sequence (Q9NRA0 whole entry): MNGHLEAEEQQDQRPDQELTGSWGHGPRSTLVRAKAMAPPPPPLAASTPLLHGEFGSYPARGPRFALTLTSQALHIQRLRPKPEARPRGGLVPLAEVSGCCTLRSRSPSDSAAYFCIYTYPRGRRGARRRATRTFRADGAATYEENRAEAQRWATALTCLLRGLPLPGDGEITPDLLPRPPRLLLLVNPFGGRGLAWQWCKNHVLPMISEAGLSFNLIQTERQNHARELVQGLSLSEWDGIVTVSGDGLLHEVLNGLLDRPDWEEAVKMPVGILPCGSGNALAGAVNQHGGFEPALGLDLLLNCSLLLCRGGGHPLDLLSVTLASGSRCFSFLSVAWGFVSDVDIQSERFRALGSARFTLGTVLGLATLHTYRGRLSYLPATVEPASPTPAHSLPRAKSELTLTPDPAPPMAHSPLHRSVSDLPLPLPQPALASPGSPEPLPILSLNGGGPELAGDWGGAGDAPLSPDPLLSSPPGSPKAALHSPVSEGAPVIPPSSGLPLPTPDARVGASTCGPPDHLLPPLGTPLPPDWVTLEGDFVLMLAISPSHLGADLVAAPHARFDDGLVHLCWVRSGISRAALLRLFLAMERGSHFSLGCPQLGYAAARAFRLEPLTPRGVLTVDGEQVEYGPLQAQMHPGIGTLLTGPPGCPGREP
Test: Inhibition of GST-tagged full length human recombinant SPHK2 expressed in baculovirus using sphingosine as substrate preincubated for 10 mins measured after 1 hr by ADP-quest assay
Output Condition met for records whose IC50 is lower than 20 µM, Condition not met for records at or above 20 µM.

*Q* Confirm or reject: IC50 of COc1ccccc1COc1ccc(/C=N/NC(=O)c2cc(O)c(O)c(O)c2)cc1 lies strictly below 20 µM
*A* Condition not met

*Q* Check O=C(N/N=C/c1ccc(OCc2ccccc2C(F)(F)F)cc1)c1cc(O)c(O)c(O)c1 too.
*A* Condition met

*Q* Check N#Cc1cccc(COc2ccc(/C=N/NC(=O)c3cc(O)c(O)c(O)c3)cc2)c1 too.
*A* Condition not met

*Q* Check O=C(N/N=C/c1cccc(OCc2ccccc2Cl)c1)c1cc(O)c(O)c(O)c1 too.
*A* Condition not met

*Q* Check COc1cccc(COc2ccc(/C=N/NC(=O)c3cc(O)c(O)c(O)c3)cc2)c1 too.
*A* Condition met

*Q* Check O=C(N/N=C/c1cccc(OCc2cccc(F)c2)c1)c1cc(O)c(O)c(O)c1 too.
*A* Condition not met

*Q* Check O=C(N/N=C/c1ccc(OCc2ccccc2C(F)(F)F)cc1)c1cc(O)cc(O)c1 too.
*A* Condition not met

###

I'd appreciate it if you could supply pIC50 values for the items below.
Molecular target: Sphingosine kinase 1 (Homo sapiens, UniProt Q9NYA1)
Sequence (Q9NYA1 whole entry): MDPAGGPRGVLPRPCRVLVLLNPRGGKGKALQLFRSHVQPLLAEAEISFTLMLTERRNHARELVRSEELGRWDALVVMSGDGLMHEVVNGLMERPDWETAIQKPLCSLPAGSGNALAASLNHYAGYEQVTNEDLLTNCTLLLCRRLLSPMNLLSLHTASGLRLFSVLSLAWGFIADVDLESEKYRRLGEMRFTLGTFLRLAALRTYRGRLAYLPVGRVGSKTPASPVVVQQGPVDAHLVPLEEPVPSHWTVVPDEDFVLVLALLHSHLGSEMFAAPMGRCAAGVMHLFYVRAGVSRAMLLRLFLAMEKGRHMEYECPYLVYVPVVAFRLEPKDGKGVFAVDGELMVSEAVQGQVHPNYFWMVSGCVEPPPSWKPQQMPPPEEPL
Test: Inhibition of GST-tagged full length human recombinant SPHK1 expressed in baculovirus using sphingosine as substrate preincubated for 10 mins measured after 1 hr by ADP-quest assay
# pIC50: negative log10 of molar concentration; output just the value

*Q* What does the data say about its pIC50? Entry: CC(C)(C)c1ccc(COc2cccc(/C=N/NC(=O)c3cc(O)c(O)c(O)c3)c2)cc1
*A* 4.45

*Q* Check O=C(N/N=C/c1ccc(OCc2ccc(C(F)(F)F)cc2)cc1)c1cc(O)c(O)c(O)c1 too.
*A* 4.43

*Q* Check O=C(N/N=C/c1cccc(OCc2ccccc2Cl)c1)c1cc(O)c(O)c(O)c1 too.
*A* 4.43

*Q* Check O=C(N/N=C/c1cccc(OCc2ccccc2C(F)(F)F)c1)c1ccc(O)c(O)c1 too.
*A* 4.81

*Q* Check COc1cccc(COc2ccc(/C=N/NC(=O)c3cc(O)c(O)c(O)c3)cc2)c1 too.
*A* 5.36

*Q* Check N#Cc1ccc(COc2cccc(/C=N/NC(=O)c3cc(O)c(O)c(O)c3)c2)cc1 too.
*A* 4.16

*Q* Check O=C(N/N=C/c1ccc(OCc2ccccc2C(F)(F)F)cc1)c1cc(O)c(O)c(O)c1 too.
*A* 4.82

*Q* Check O=C(N/N=C/c1cccc(OCc2ccc(C(F)(F)F)cc2)c1)c1cc(O)c(O)c(O)c1 too.
*A* 4.79

*Q* Check O=C(N/N=C/c1cccc(OCc2ccccc2C(F)(F)F)c1)c1cc(O)c(O)c(O)c1 too.
*A* 4.71

*Q* Check CC(C)(C)c1ccc(COc2ccc(/C=N/NC(=O)c3cc(O)c(O)c(O)c3)cc2)cc1 too.
*A* 4.39

*Q* Check COc1cccc(COc2ccc(/C=N/NC(=O)c3ccc(O)c(O)c3)cc2)c1 too.
*A* 4.60

*Q* Check O=C(N/N=C/c1cccc(OCc2ccccc2)c1)c1cc(O)c(O)c(O)c1 too.
*A* 4.40

*Q* Check Cc1ccc(COc2ccc(/C=N/NC(=O)c3cc(O)c(O)c(O)c3)cc2)cc1 too.
*A* 4.49

*Q* Check N#Cc1ccc(COc2ccc(/C=N/NC(=O)c3cc(O)c(O)c(O)c3)cc2)cc1 too.
*A* 4.56

*Q* Check Cc1cccc(COc2cccc(/C=N/NC(=O)c3cc(O)c(O)c(O)c3)c2)c1 too.
*A* 4.28

*Q* Check Cc1ccc(COc2cccc(/C=N/NC(=O)c3cc(O)c(O)c(O)c3)c2)cc1 too.
*A* 4.34

*Q* Check O=C(N/N=C/c1ccc(OCc2ccccc2)cc1)c1cc(O)c(O)c(O)c1 too.
*A* 4.66

*Q* Check COc1cccc(COc2cccc(/C=N/NC(=O)c3cc(O)c(O)c(O)c3)c2)c1 too.
*A* 5.07

*Q* Check O=C(N/N=C/c1ccc(OCc2cccc(C(F)(F)F)c2)cc1)c1cc(O)c(O)c(O)c1 too.
*A* 4.26

*Q* Check O=C(N/N=C/c1ccc(OCc2ccccc2C(F)(F)F)cc1)c1ccc(O)c(O)c1 too.
*A* 4.78

*Q* Check COc1cccc(COc2cccc(/C=N/NC(=O)c3ccc(O)c(O)c3)c2)c1 too.
*A* 5.30

*Q* Check O=C(N/N=C/c1cccc(OCc2cccc3ccccc23)c1)c1cc(O)c(O)c(O)c1 too.
*A* 4.50

###

Molecular target: UniProtKB Q9NYA1
Assay: Inhibition of GST-tagged full length human recombinant SPHK1 expressed in baculovirus using sphingosine as substrate preincubated for 10 mins measured after 1 hr by ADP-quest assay
Output true for records whose IC50 is lower than 50 µM, false for records at or above 50 µM.

*Q* Confirm or reject: IC50 of N#Cc1ccccc1COc1cccc(/C=N/NC(=O)c2cc(O)c(O)c(O)c2)c1 lies strictly below 50 µM
*A* true

*Q* Check O=C(N/N=C/c1cccc(OCc2ccccc2)c1)c1ccc2[nH]cnc2c1 too.
*A* false

*Q* Check N#Cc1cccc(COc2ccc(/C=N/NC(=O)c3cc(O)c(O)c(O)c3)cc2)c1 too.
*A* true

*Q* Check O=C(N/N=C/c1cccc(OCc2ccc(Cl)cc2)c1)c1cc(O)c(O)c(O)c1 too.
*A* false

*Q* Check N#Cc1ccccc1COc1ccc(/C=N/NC(=O)c2cc(O)c(O)c(O)c2)cc1 too.
*A* false

*Q* Check Cc1ccccc1COc1cccc(/C=N/NC(=O)c2cc(O)c(O)c(O)c2)c1 too.
*A* false

*Q* Check COc1ccccc1COc1cccc(/C=N/NC(=O)c2cc(O)c(O)c(O)c2)c1 too.
*A* true

*Q* Check O=C(N/N=C/c1cccc(OCc2ccccc2C(F)(F)F)c1)c1cc(O)cc(O)c1 too.
*A* false

*Q* Check N#Cc1cccc(COc2cccc(/C=N/NC(=O)c3cc(O)c(O)c(O)c3)c2)c1 too.
*A* false

*Q* Check COc1ccccc1COc1ccc(/C=N/NC(=O)c2cc(O)c(O)c(O)c2)cc1 too.
*A* true

*Q* Check O=C(N/N=C/c1ccc(OCc2ccc3ccccc3c2)cc1)c1cc(O)c(O)c(O)c1 too.
*A* true

###

Target: Sphingosine kinase 2 (Homo sapiens)
Experiment: Inhibition of GST-tagged full length human recombinant SPHK2 expressed in baculovirus using sphingosine as substrate preincubated for 10 mins measured after 1 hr by ADP-quest assay
pIC50: −log10 of the molar value.
I'd appreciate it if you could supply pIC50 values for the items below.

*Q* What does the data say about its pIC50? Entry: COc1cccc(COc2ccc(/C=N/NC(=O)c3cccc(O)c3)cc2)c1
*A* < 4.00

*Q* Check N#Cc1ccc(COc2ccc(/C=N/NC(=O)c3cc(O)c(O)c(O)c3)cc2)cc1 too.
*A* 4.75

*Q* Check COc1ccc(COc2ccc(/C=N/NC(=O)c3cc(O)c(O)c(O)c3)cc2)cc1 too.
*A* < 4.00

*Q* Check O=C(N/N=C/c1ccc(OCc2ccc3ccccc3c2)cc1)c1cc(O)c(O)c(O)c1 too.
*A* 4.52

*Q* Check O=C(N/N=C/c1cccc(OCc2ccccc2C(F)(F)F)c1)c1cccc(O)c1 too.
*A* < 4.00

*Q* Check O=C(N/N=C/c1ccc(OCc2ccccc2)cc1)c1cc(O)c(O)c(O)c1 too.
*A* 4.55

*Q* Check N#Cc1ccccc1COc1cccc(/C=N/NC(=O)c2cc(O)c(O)c(O)c2)c1 too.
*A* 4.16

*Q* Check COc1cccc(COc2cccc(/C=N/NC(=O)c3cc(O)cc(O)c3)c2)c1 too.
*A* < 4.00

*Q* Check Cc1ccccc1COc1cccc(/C=N/NC(=O)c2cc(O)c(O)c(O)c2)c1 too.
*A* 4.09

*Q* Check O=C(N/N=C/c1cccc(OCc2ccccc2)c1)c1ccc2[nH]cnc2c1 too.
*A* < 4.00

*Q* Check Cc1ccc(COc2ccc(/C=N/NC(=O)c3cc(O)c(O)c(O)c3)cc2)cc1 too.
*A* 4.35

*Q* Check O=C(N/N=C/c1ccc(OCc2ccc(C(F)(F)F)cc2)cc1)c1cc(O)c(O)c(O)c1 too.
*A* 4.81

*Q* Check O=C(N/N=C/c1cccc(OCc2ccccc2C(F)(F)F)c1)c1ccc(O)cc1 too.
*A* < 4.00

*Q* Check O=C(N/N=C/c1cccc(OCc2cccc(C(F)(F)F)c2)c1)c1cc(O)c(O)c(O)c1 too.
*A* < 4.00

*Q* Check N#Cc1cccc(COc2cccc(/C=N/NC(=O)c3cc(O)c(O)c(O)c3)c2)c1 too.
*A* < 4.00

*Q* Check O=C(N/N=C/c1ccc(OCc2ccccc2C(F)(F)F)cc1)c1ccc(O)cc1 too.
*A* < 4.00

*Q* Check O=C(N/N=C/c1cccc(OCc2ccc(F)cc2)c1)c1cc(O)c(O)c(O)c1 too.
*A* < 4.00

*Q* Check O=C(N/N=C/c1cccc(OCc2ccccc2C(F)(F)F)c1)c1cc(O)cc(O)c1 too.
*A* < 4.00

*Q* Check O=C(N/N=C/c1ccc(OCc2ccccc2C(F)(F)F)cc1)c1cccc(O)c1 too.
*A* < 4.00

*Q* Check COc1cccc(COc2cccc(/C=N/NC(=O)c3cccc(O)c3)c2)c1 too.
*A* < 4.00

*Q* Check COc1cccc(COc2ccc(/C=N/NC(=O)c3cc(O)cc(O)c3)cc2)c1 too.
*A* < 4.00

*Q* Check COc1cccc(COc2cccc(/C=N/NC(=O)c3ccc(O)cc3)c2)c1 too.
*A* < 4.00

// data source = ChEMBL document CHEMBL3813598
